# Test description: Metabolic stability assessed as intrinsic clearance in human liver microsomes
# Assay type: ADME, Microsome
Just a reminder that ties go to false (0): only microsomal CLint strictly below 60 µL/min/mg counts as true (1).

* COc1ccc2c(C)cc(N[C@H]3CC[C@H](NCc4cn(C)c5ccccc45)C3)nc2c1 | true (1)
* CN(C)c1cc(N[C@H]2CCC[C@H](NCc3ccsc3)C2)nc2ccccc12 | true (1)
* COc1ccc2c(C)cc(N[C@H]3CCC[C@H](NCc4ccc(S(C)(=O)=O)cc4Cl)C3)nc2c1 | false (0)
* FC(F)(F)c1cc(N[C@H]2CCC[C@H](NCc3ccsc3)C2)nc2ccccc12 | false (0)
* COc1ccc2nc(N[C@H]3CCC[C@H](NCc4ccsc4)C3)ccc2c1 | false (0)
* COc1ccc2c(C)cc(N[C@H]3CCC[C@H](NCc4cccc(OC(F)(F)F)c4)C3)nc2c1 | false (0)
* COc1ccc2c(C)cc(N[C@H]3CCC[C@H](NCc4cn(C)c5ccc(Br)cc45)C3)nc2c1 | true (1)
* COc1ccc2c(C)cc(N[C@H]3CC[C@H](NCc4cn(C)c5ccc(OC(F)F)cc45)C3)nc2c1 | true (1)

====

# Test description: Tmax in C57BL/6J mouse plasma at 20 umol/kg, iv and 20 umol/kg, po
# Type: ADME, organism-based
Reported endpoint: Tmax

- COc1ccc2c(C)cc(N[C@H]3CC[C@H](NCc4cn(C)c5cccnc45)C3)nc2c1: 24 h

====

# Test description: Clearance in C57BL/6J mouse at 20 umol/kg, iv and 20 umol/kg, po
# Type: ADME, organism-based
# Assay setup: in vivo
Reported endpoint: clearance (mL/min/kg)

- COc1ccc2c(C)cc(N[C@H]3CC[C@H](NCc4cn(C)c5cccnc45)C3)nc2c1: 15

====

// pIC50 lookup, one value per entry
# Target entity: Melanin-concentrating hormone receptor 1 (Homo sapiens)
# Sequence (Q99705 whole entry): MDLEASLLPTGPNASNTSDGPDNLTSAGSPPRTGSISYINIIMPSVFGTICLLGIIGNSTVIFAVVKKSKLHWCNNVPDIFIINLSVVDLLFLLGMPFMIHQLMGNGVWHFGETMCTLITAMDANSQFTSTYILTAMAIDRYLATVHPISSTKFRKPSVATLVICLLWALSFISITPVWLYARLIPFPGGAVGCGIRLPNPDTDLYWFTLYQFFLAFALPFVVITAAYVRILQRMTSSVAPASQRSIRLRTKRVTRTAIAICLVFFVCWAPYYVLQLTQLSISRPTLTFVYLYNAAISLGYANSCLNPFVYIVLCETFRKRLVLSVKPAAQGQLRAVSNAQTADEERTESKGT
# Test description: Displacement of [125I]MCH from human MCHR1 expressed in HEK293 cells
# Type: cell-based
pIC50: −log10 of the molar value.
Reported endpoint: pIC50

- COc1ccc2nc(N[C@H]3CCC[C@H](NCc4ccsc4)C3)cc(C)c2c1: 8.52
- COc1ccc2nc(NCCNCc3ccsc3)cc(C)c2c1: 5.44
- COc1ccc2c(C)cc(N[C@H]3CC[C@H](NCc4cn(C)c5ccc(OC(F)F)cc45)C3)nc2c1: 8.30
- COc1ccc2nc(N[C@@H]3CCC[C@@H](NCc4ccsc4)C3)cc(C)c2c1: 6.39
- COc1ccc2c(C)cc(N[C@H]3CCC[C@H](NCc4ccc(Cl)c(Cl)c4)C3)nc2c1: 7.89
- COc1ccc2nc(N[C@H]3C[C@@H]4C[C@H]3[C@@H](NCc3ccsc3)C4)cc(C)c2c1: 7.46
- Clc1ccc2nc(N[C@H]3CCC[C@H](NCc4ccsc4)C3)ccc2c1: 6.24
- COc1ccc2nc(N[C@H]3CC[C@H](N(C)Cc4ccsc4)C3)cc(C)c2c1: 6.92
- COc1ccc2nc(N[C@H]3CCC[C@H](NCc4ccsc4)C3)ccc2c1: 7.24
- COc1ccc2nc(NCC3CCCN(Cc4ccsc4)C3)cc(C)c2c1 (centres undefined): 5.52
- COc1ccc2c(C)cc(N[C@H]3CC[C@H](NCc4cn(C)c5ccc(OCc6ccccc6)cc45)C3)nc2c1: 7.10
- CN(C)c1ccc2nc(N[C@H]3CCC[C@H](NCc4ccsc4)C3)ccc2c1: 6.07
- COc1ccc2c(C)cc(N[C@H]3CCC[C@H](NCc4cn(C(=O)N(C)C)c5ccc(Cl)cc45)C3)nc2c1: 7.24
- COc1ccc2c(C)cc(N[C@H]3CC[C@H](NCc4cn(C)c5cccnc45)C3)nc2c1: 7.54
- Cc1cc(N[C@H]2CCC[C@H](NCc3ccsc3)C2)nc2ccccc12: 8.15
- COc1ccc2c(C)cc(N[C@H]3CC[C@H](NCc4cn(C)c5c(C#N)cccc45)C3)nc2c1: 7.70
- COc1ccc2c(C)cc(N[C@H]3CCC[C@H](NCc4cn(C)nc4C)C3)nc2c1: 6.75
- COc1ccc2c(C)cc(N[C@H]3CCC[C@H](NCc4cn(C)c5ccc(Br)cc45)C3)nc2c1: 7.21
- COc1ccc2nc(N[C@@H]3C[C@@H]4C[C@H]3[C@H](NCc3ccsc3)C4)cc(C)c2c1: 5.30
- COc1ccc2nc(N[C@H]3CCC[C@H](NCc4ccsc4)C3)c(C)cc2c1: 5.86
- COc1ccc2c(C)cc(N[C@H]3CCC[C@H](NCc4ccc5nsnc5c4)C3)nc2c1: 7.80
- COc1ccc2nc(NCCCNC(=O)c3ccsc3)cc(C)c2c1: 6.97
- COc1ccc2nc(N(C)[C@H]3CC[C@H](NCc4ccsc4)C3)cc(C)c2c1: 5.64
- CC(=O)N(C)c1ccc2nc(N[C@H]3CCC[C@H](NCc4ccsc4)C3)ccc2c1: 5.60
- COc1ccc2c(C)cc(N[C@H]3CC[C@H](NCc4cn(C)c5ccccc45)C3)nc2c1: 8.05
- N#Cc1cc(N[C@H]2CCC[C@H](NCc3ccsc3)C2)nc2ccccc12: 5.00
- COc1ccc2c(C)cc(N[C@H]3CCC[C@H](NCc4cncc5ccccc45)C3)nc2c1: 7.66
- COc1ccc2nc(N[C@H]3CC[C@H](NCc4ccsc4)C3)cc(C)c2c1: 7.21
- COc1ccc2c(C)cc(N[C@H]3CCC[C@H](NCc4cccc5nsnc45)C3)nc2c1: 8.00
- COc1ccc2c(C)cc(N[C@H]3CCC[C@H](NCc4ccsc4)C3)nc2c1: 10.00
- CN(C)c1cc(N[C@H]2CCC[C@H](NCc3ccsc3)C2)nc2ccccc12: 7.54
- Clc1cccc2ccc(N[C@H]3CCC[C@H](NCc4ccsc4)C3)nc12: 5.29
- COc1cccc2nc(N[C@H]3CCC[C@H](NCc4ccsc4)C3)ccc12: 7.27
- c1ccc2nc(N[C@H]3CCC[C@H](NCc4ccsc4)C3)ccc2c1: 7.17
- COc1ccc2c(C)cc(N[C@H]3CC[C@H](NCc4cn(C)c5cc(C#N)ccc45)C3)nc2c1: 7.48
- COc1ccc(Br)c(CN[C@H]2CCC[C@H](Nc3cc(C)c4ccc(OC)cc4n3)C2)c1: 7.55
- COc1cc(N[C@H]2CCC[C@H](NCc3ccsc3)C2)nc2ccccc12: 8.05
- COc1ccc2c(C)cc(N[C@H]3CCC[C@H](NCc4cnccn4)C3)nc2c1: 7.05

====

# Test description: Ratio of Cmax in brain to plasma in C57BL/6J mouse at 20 umol/kg, iv and 20 umol/kg, po
# Assay type: ADME, organism-based
# Assay setup: read-out: BPR
Reported endpoint: Kp

* COc1ccc2c(C)cc(N[C@H]3CC[C@H](NCc4cn(C)c5cccnc45)C3)nc2c1 | 0.13

====

# Test description: Oral bioavailability in C57BL/6J mouse at 20 umol/kg
# Type: ADME, organism-based
# Assay setup: in vivo
Reported endpoint: bioavailability (%)

- COc1ccc2c(C)cc(N[C@H]3CC[C@H](NCc4cn(C)c5cccnc45)C3)nc2c1: 100

====

// microsomal CLint lookup, one value per entry
# Test description: Metabolic stability assessed as intrinsic clearance in human liver microsomes
# Format: ADME, Microsome
Reported endpoint: microsomal CLint (µL/min/mg)

• Clc1cccc2ccc(N[C@H]3CCC[C@H](NCc4ccsc4)C3)nc12 = 15
• COc1ccc2c(C)cc(N[C@H]3CCC[C@H](NCc4ccsc4)C3)nc2c1 = 32
• COc1ccc2c(C)cc(N[C@H]3CCC[C@H](NCc4cncc5ccccc45)C3)nc2c1 = 500
• COc1ccc2c(C)cc(N[C@H]3CC[C@H](NCc4cn(C)c5c4ccc4cccnc45)C3)nc2c1 = 12
• COc1ccc2c(C)cc(N[C@H]3CC[C@H](NCc4cn(C)c5ccc(OCc6ccccc6)cc45)C3)nc2c1 = 26
• COc1ccc2c(C)cc(N[C@H]3CCC[C@H](NCc4cn(C(=O)N(C)C)c5ccc(Cl)cc45)C3)nc2c1 = 52
• Cc1cc(N[C@H]2CCC[C@H](NCc3ccsc3)C2)nc2ccccc12 = 60
• COc1ccc2c(C)cc(N[C@H]3CCC[C@H](NCc4ccc5nsnc5c4)C3)nc2c1 = 227
• COc1ccc2c(C)cc(N[C@H]3CC[C@H](NCc4cn(C)c5cccnc45)C3)nc2c1 = 20
• COc1cccc2nc(N[C@H]3CCC[C@H](NCc4ccsc4)C3)ccc12 = 38

====

# Test description: Tmax in C57BL/6J mouse brain at 20 umol/kg, iv and 20 umol/kg, po
# Format: ADME, organism-based
Reported endpoint: Tmax (min)

- COc1ccc2c(C)cc(N[C@H]3CC[C@H](NCc4cn(C)c5cccnc45)C3)nc2c1: 15.6

====

# Test description: Half life in C57BL/6J mouse plasma at 20 umol/kg, iv and 20 umol/kg, po
# Type: ADME, organism-based
Reported endpoint: half-life (h)

• COc1ccc2c(C)cc(N[C@H]3CC[C@H](NCc4cn(C)c5cccnc45)C3)nc2c1 = 8.6
